# TGT: Prostaglandin G/H synthase 1 (Ovis aries) (UniProt P05979)
# Sequence (P05979 whole entry, looked up): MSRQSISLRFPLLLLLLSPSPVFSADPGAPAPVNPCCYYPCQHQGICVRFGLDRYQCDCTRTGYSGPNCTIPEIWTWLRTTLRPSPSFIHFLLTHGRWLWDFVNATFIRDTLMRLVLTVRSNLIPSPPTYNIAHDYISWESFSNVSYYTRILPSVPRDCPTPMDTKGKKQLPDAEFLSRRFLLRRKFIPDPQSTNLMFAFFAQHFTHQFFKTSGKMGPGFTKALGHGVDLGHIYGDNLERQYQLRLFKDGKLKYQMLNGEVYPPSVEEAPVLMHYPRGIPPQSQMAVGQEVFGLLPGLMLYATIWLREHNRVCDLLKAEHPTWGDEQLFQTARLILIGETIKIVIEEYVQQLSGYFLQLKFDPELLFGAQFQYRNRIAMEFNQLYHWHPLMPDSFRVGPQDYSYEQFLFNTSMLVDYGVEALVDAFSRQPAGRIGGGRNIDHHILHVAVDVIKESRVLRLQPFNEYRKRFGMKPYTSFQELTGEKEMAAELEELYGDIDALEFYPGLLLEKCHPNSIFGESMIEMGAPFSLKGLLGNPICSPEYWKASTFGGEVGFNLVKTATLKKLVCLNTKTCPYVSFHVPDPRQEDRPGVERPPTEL
# PROCEDURE_SUMMARY: Inhibition of PGH synthase by measuring oxygen consumption with a Clark oxygen electrode at 100 uM
# Set-up: scale not given: the % may be the effect or the level left

| SMILES_ENTRY | Control [%] |
| --- | --- |
| O=C1C(CC#CCCl)C(=O)N(c2ccccc2)N1c1ccccc1 | 10 |
| CCC(C)=C1C(=O)N(c2ccccc2)N(c2ccccc2)C1=O | 21 |
| CC(C)=C1C(=O)N(c2ccccc2)N(c2ccccc2)C1=O | 63 |
| O=C(NCCC1C(=O)N(c2ccccc2)N(c2ccccc2)C1=O)Oc1ccccc1 | 42 |
| CC(=C1C(=O)N(c2ccccc2)N(c2ccccc2)C1=O)c1ccccc1 | 31 |
| O=C(CCl)NCCC1C(=O)N(c2ccccc2)N(c2ccccc2)C1=O | 90 |
| CC(C)(C#N)C1C(=O)N(c2ccccc2)N(c2ccccc2)C1=O | 5 |
| CCCC=C1C(=O)N(c2ccccc2)N(c2ccccc2)C1=O | 18 |
| O=C1C(=C/C=C/c2ccccc2)C(=O)N(c2ccccc2)N1c1ccccc1 | 96 |
| O=C(CBr)NCCC1C(=O)N(c2ccccc2)N(c2ccccc2)C1=O | 79 |
